Reference for the values: the supplement of paper PMC10883282

- Tested on: SYO-1
- assay.text: relative viability vs DMSO control (72 h) (fraction); higher = more viable cells
- measurement.conditions: 0.00051 µM
readout.type: relative viability
# print the numeric value only

Consider the following illustrative entries.
>>> value_observed("COc1cc2c(Oc3ccc4[nH]c(C)cc4c3F)ncnc2cc1OCCCN1CCCC1")
0.962
>>> value_observed("Cc1ccc(NC(=O)c2ccc(CN3CCN(C)CC3)cc2)cc1Nc1nc(-c2cccnc2)cs1")
1.02
>>> value_observed("CN1CCN(c2ccc3nc(-c4c(N)c5c(F)cccc5[nH]c4=O)[nH]c3c2)CC1")
1.04
>>> value_observed("C=CC(=O)Nc1cccc(Oc2nc(Nc3ccc(N4CCN(C)CC4)cc3)nc3ccsc23)c1")
0.985
>>> value_observed("CC(C)N1CCN(Cc2cnc(-c3cc(-c4cccc5[nH]ccc45)cc4[nH]ncc34)o2)CC1")
0.981
>>> value_observed("Cn1cnc2c(F)c(Nc3ccc(Br)cc3F)c(C(=O)NOCCO)cc21")
1.05
>>> value_observed("Nc1cc(C(F)(F)F)c(-c2cc(N3CCOCC3)nc(N3CCOCC3)n2)cn1")
0.939
>>> value_observed("Cc1ccc(F)c(NC(=O)Nc2ccc(-c3cccc4[nH]nc(N)c34)cc2)c1")
0.968

State its relative viability on SYO-1: CC[C@H](Nc1ncnc2[nH]cnc12)c1nc2cccc(F)c2c(=O)n1-c1ccccc1
0.979

State its relative viability on SYO-1: Cc1cnc(Nc2ccc(OCCN3CCCC3)cc2)nc1Nc1cccc(S(=O)(=O)NC(C)(C)C)c1
0.943

* * *

Quick reference: relative viability of the listed items.
- Tested on: KHOS-NP
- assay.text: relative viability vs DMSO control (72 h) (fraction); higher = more viable cells
- measurement.conditions: 0.3704 µM
Structures can show the parent of a compound that is named as a salt.
# print the numeric value only

Consider the following illustrative entries.
>>> value_observed("COc1cccc2c1C(=O)c1c(O)c3c(c(O)c1C2=O)C[C@@](O)(C(=O)CO)C[C@@H]3O[C@H]1C[C@H](N)[C@H](O)[C@H](C)O1 [Doxorubicin Hydrochloride]")
0.475
>>> value_observed("CC1(C)CNc2cc(NC(=O)c3cccnc3NCc3ccncc3)ccc21")
1.03
>>> value_observed("Cc1cc(C)c(/C=C2\\C(=O)Nc3ccccc32)[nH]1")
1

Record request: relative viability value, item CN1CCN(c2ccc3nc(-c4c(N)c5c(F)cccc5[nH]c4=O)[nH]c3c2)CC1
1.04

Record request: relative viability value, item CC(=O)Nc1cccc(-n2c(=O)n(C3CC3)c(=O)c3c(Nc4ccc(I)cc4F)n(C)c(=O)c(C)c32)c1
0.275

Record request: relative viability value, item C=CC(=O)N1CCC[C@@H](n2nc(-c3ccc(Oc4ccccc4)cc3)c3c(N)ncnc32)C1
1.01

Record request: relative viability value, item Cc1nc(-c2cn3c(n2)-c2ccc(-c4cnn(C(C)(C)C(N)=O)c4)cc2OCC3)n(C(C)C)n1
1.03

Record request: relative viability value, item Cc1nc(NC(=O)N2CCC[C@H]2C(N)=O)sc1-c1ccnc(C(C)(C)C(F)(F)F)c1
1.04

Record request: relative viability value, item Nc1cc(C(F)(F)F)c(-c2cc(N3CCOCC3)nc(N3CCOCC3)n2)cn1
1.07

Record request: relative viability value, item CCc1cc2c(cc1N1CCC(N3CCOCC3)CC1)C(C)(C)c1[nH]c3cc(C#N)ccc3c1C2=O
1.07

* * *

- Test system: A204
- assay.text: relative viability vs DMSO control (72 h) (fraction); higher = more viable cells
- measurement.conditions: 0.00051 µM
Quick reference: relative viability of the listed items.
# print the numeric value only

Consider the following illustrative entries.
>>> value_observed("CC(C)NC(=O)C1CCC(n2c(NC(=O)c3ccc(F)cc3)nc3ccc(CN4CCC(C(C)(C)O)CC4)cc32)CC1 (stereo not drawn)")
1.11
>>> value_observed("COc1c(OCCCN2CCOCC2)ccc2c1N=C(NC(=O)c1cnc(N)nc1)N1CCN=C21")
1.01
>>> value_observed("N#CC[C@H](C1CCCC1)n1cc(-c2ncnc3[nH]ccc23)cn1")
1.03

Record request: relative viability value, item C[C@]1(O)C[C@@H](c2nc(-c3ccc4ccc(-c5ccccc5)nc4c3)c3c(N)nccn32)C1
1.05

Record request: relative viability value, item Cc1ccc(NC(=O)c2ccc(CN3CCN(C)CC3)cc2)cc1Nc1nc(-c2cccnc2)cs1
1.03

Record request: relative viability value, item CNC(=O)c1cc(Oc2ccc(NC(=O)Nc3ccc(Cl)c(C(F)(F)F)c3)c(F)c2)ccn1
1.07

Record request: relative viability value, item Cc1cnc(Nc2ccc(OCCN3CCCC3)cc2)nc1Nc1cccc(S(=O)(=O)NC(C)(C)C)c1
1.07

Record request: relative viability value, item C=CC(=O)N1CCC([C@@H]2CCNc3c(C(N)=O)c(-c4ccc(Oc5ccccc5)cc4)nn32)CC1
0.991

* * *

- System: HS729
- assay.text: relative viability vs DMSO control (72 h) (fraction); higher = more viable cells
- measurement.conditions: 0.1235 µM
Structures can show the parent of a compound that is named as a salt.
Labelling: relative viability reported below 0.9 becomes Yes; at or above becomes No.

>>> class_name("COc1cc2nccc(Oc3ccc(NC(=O)Nc4cc(C)on4)c(Cl)c3)c2cc1OC [Tivozanib]")
"Yes"
>>> class_name("Nc1cc(C(F)(F)F)c(-c2cc(N3CCOCC3)nc(N3CCOCC3)n2)cn1 [Buparlisib]")
"Yes"
>>> class_name("Cc1ccc(F)c(NC(=O)Nc2ccc(-c3cccc4[nH]nc(N)c34)cc2)c1 [Linifanib]")
"Yes"
>>> class_name("CC(C)(C)c1cc(NC(=O)Nc2ccc(-c3cn4c(n3)sc3cc(OCCN5CCOCC5)ccc34)cc2)no1 [Quizartinib]")
"No"
>>> class_name("CCCS(=O)(=O)Nc1ccc(F)c(C(=O)c2c[nH]c3ncc(-c4ccc(Cl)cc4)cc23)c1F [Vemurafenib]")
"No"

Answer whether the compound CCc1cc2c(cc1N1CCC(N3CCOCC3)CC1)C(C)(C)c1[nH]c3cc(C#N)ccc3c1C2=O [Alectinib] has relative viability strictly less than 0.9
No

Answer whether the compound C[C@@H]1CCN(C(=O)CC#N)C[C@@H]1N(C)c1ncnc2[nH]ccc12 [Tofacitinib] has relative viability strictly less than 0.9
Yes

Answer whether the compound CC(=O)Nc1cccc(-n2c(=O)n(C3CC3)c(=O)c3c(Nc4ccc(I)cc4F)n(C)c(=O)c(C)c32)c1 [Trametinib] has relative viability strictly less than 0.9
Yes

Answer whether the compound COc1cccc2c1C(=O)c1c(O)c3c(c(O)c1C2=O)C[C@@](O)(C(=O)CO)C[C@@H]3O[C@H]1C[C@H](N)[C@H](O)[C@H](C)O1 [Doxorubicin Hydrochloride] has relative viability strictly less than 0.9
Yes

* * *

- Test system: HT1080
- assay.text: relative viability vs DMSO control (72 h) (fraction); higher = more viable cells
- measurement.conditions: 1.111 µM
readout.type: relative viability
# print the numeric value only

Consider the following illustrative entries.
>>> value_observed("CC(=O)Nc1cccc(-n2c(=O)n(C3CC3)c(=O)c3c(Nc4ccc(I)cc4F)n(C)c(=O)c(C)c32)c1 [Trametinib]")
0.351
>>> value_observed("C[C@@H]1COCCN1c1cc(-c2ccnn2C)c2ccnc(-c3ccn[nH]3)c2n1")
0.191
>>> value_observed("C=CC(=O)N1CCC[C@@H](n2nc(-c3ccc(Oc4ccccc4)cc3)c3c(N)ncnc32)C1 [Ibrutinib]")
1.12

Record request: relative viability value, item Nc1cc(C(F)(F)F)c(-c2cc(N3CCOCC3)nc(N3CCOCC3)n2)cn1 [Buparlisib]
1

Record request: relative viability value, item C[C@]1(O)C[C@@H](c2nc(-c3ccc4ccc(-c5ccccc5)nc4c3)c3c(N)nccn32)C1 [Linsitinib]
0.968

Record request: relative viability value, item COc1cc2/c(=N/c3ccc(Br)cc3F)nc[nH]c2cc1OCC1CCN(C)CC1 [Vandetanib]
1.02

Record request: relative viability value, item C=CC(=O)Nc1cccc(Oc2nc(Nc3ccc(N4CCN(C)CC4)cc3)nc3ccsc23)c1 [Olmutinib]
1.04

Record request: relative viability value, item CC(C)NC(=O)C1CCC(n2c(NC(=O)c3ccc(F)cc3)nc3ccc(CN4CCC(C(C)(C)O)CC4)cc32)CC1 (configuration not stated) [Belizatinib]
1.03

Record request: relative viability value, item Cc1cc(C)c(/C=C2\C(=O)Nc3ccccc32)[nH]1 [Semaxanib]
0.928

Record request: relative viability value, item Cc1ccc(F)c(NC(=O)Nc2ccc(-c3cccc4[nH]nc(N)c34)cc2)c1 [Linifanib]
1.08

Record request: relative viability value, item Cn1cc(-c2cc3c(N4CCN(c5ncc([C@@](C)(N)c6ccc(F)cc6)cn5)CC4)ncnn3c2)cn1 [Avapritinib]
0.908

Record request: relative viability value, item CN1CCN(c2ccc3nc(-c4c(N)c5c(F)cccc5[nH]c4=O)[nH]c3c2)CC1 [Dovitinib]
0.975
